- System: K4 kissing-loop RNA reporter;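 further: bound reporter read as fluorescence of individual clusters on recovered sequencing chips by microscopy, with normalized cluster intensities fitted with a binding model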
- test-name: apparent KD of K4 kissing-loop reporter; higher = weaker reporter binding
- test-conditions: Eterna round: R107; input ligand: none
reported-metric: apparent KD of K4 kissing-loop reporter (µM)

biosequence	unit-spec	value-observed
UUGUUAUGAUAAAAUCCUGUUUGAUAAAGACAGGAUAUAGAAAAUACUAGAAGGGUCAUUAUAUGCAGUGAUGUUGCAAAUAAGU [Exclusion FMN A Gf 22]	µM	0.0384
AAGCAGUUCUCAAAGAGUACUGCAGGACAGCAGGAUAUAGUGAUGUUGAGAAGGGCUGUCCCGUCUGCAUGAAACAUGCAGACGA [Simply curious]	µM	0.808
AAGUAGCUCUCGGCCGCCACUCCUCAGUGAUGUUGAGAUUUUUUCUGCCAAUUGGCGUUUUUUUAGAGGACCGGGAGAGCUACAA [AK1 SS Tryptophan B]	µM	0.339
GUGGCGGGCCAAGGAUAUAUUUUGGAGUGAUGUUGUUCAUUUAUUUGAGCUAGUGAUGUUGGUCGAAUAGAAGGUGGCCCGCCAC [whbob_Ex_FMNB__2th220]	µM	0.0528
GAAAGAAAGAAUGAUACCAGACACCCGAGUGAUGUUCGGAGCAGAGUGAUGUUCUUUUAAGUCCCUUGGCAGCAUAAAAGAAAAG [whbob_SS_Theo_B_sa82]	µM	0.153
ACACUAUCGUCAUAGACGGUAGUGAAAGCUGAGGAUAUGAGUGAUGUUAGAAGGUAGCAAGACUGUAUCGAAUAGAUACAGUCAA [FmnA 5 #K4BetweenAptamer #OpenEnded]	µM	0.163
CGCCAGUGAUGUUGGUGCAGCUACCGGGAAGGAGCGCCCAUAAGGGCAGGUAGGUCGCCCGGGCAGUGAUGUUGCCUCAUGCCGC [Exclusion Arginine A GF 22]	µM	0.273
GCCGUAGAUUGAAGGAGCGCCGCGCAUGUCCCGCUUAGUGUAGUGAUGUUACAGUUUCAGCGGCAGGUAGGUCGCAAUCUACGGC	µM	0.0813
UGAUAGGACAGAAGGAGCGGAAGUGAUGUUUCCAAAAGAUAUGAUCGACAAAGUCGAUUUUUCCAGGUAGGUCGCUGUCCUAUCU [KL-XARG-B19]	µM	0.0668
UGCGCUAUGUCCUAAAACGUCCUCCGGGAUACCAGAGUCUUUUUAUUCCCUUGGCAGCUUGAGUGAUGUUUGAUGCCGUUCUUGU [srrevmullin]	µM	0.366
GGAUAGGACAGAGGAUAUGGUAGUGAUGUUACCAAACUGGUUACUCUUGUCAGAAAACUGGCAUCUCCAGAAGGCUGUCCUAUCG [KL-XFMN-B10]	µM	0.123
AAAAUAAAUAGCAGUCAUGGAGUGAUGUUCCGAGGACCGGUACGGCCGCCACUCGACCAUCAUAAGAUGGAUGGCGAAGACUGCA [#SwitchBubble 24 #K4Early]	µM	0.483

Origin of values: the supplement of paper PMC9170038
